The binders listed here are annotated with their pKd.
# assayed-target: T1, 10E8-GT10.2 (synthetic construct; HIV-1 MPER helix …, N-linked glycan density at N74/75)
# T1 construct: also called MPER-GT immunogen
# T1 chain: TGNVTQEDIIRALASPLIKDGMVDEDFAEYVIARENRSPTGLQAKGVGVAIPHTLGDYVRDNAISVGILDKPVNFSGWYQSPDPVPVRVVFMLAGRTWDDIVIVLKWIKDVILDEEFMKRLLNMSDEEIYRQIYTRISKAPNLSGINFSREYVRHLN
# protocol-notes: SPR
# assay-conditions: both partners purified
In plain terms, pKd is the concentration in mol/L turned into minus its base-10 logarithm.

Solved entries:
[
  {
    "binder": "NHP-10E8_MPER-GT10v55_W3-02 (Fab, V domains shown, source: FreeStyle 293F cells, transfected, purified) VH: EVQLVESGGGLVQPGGSLKLSCAASGFTFSDHYMDWVRQAPGKGLEWVSSVSSGSGSATLYPDSVKGRFTISRDNAKNTVYLQMNSLRAEDTAVYYCARRGLYYDFWSGYSDFYYGLDSWGQGVVVTVSS VL: DIVMTQTPLSLPITPGEPASISCRSSQSLLQSNGNTYLHWYLQKPGQSPQLLIYGGSNRASGVPDRFSGSGSGTDFTLKISKVEAEDVGVYYCVQAIAFPFTFGPGTKLDIK",
    "parameter": "pKd",
    "data-value": 8.12
  },
  {
    "binder": "SA684_Exp1_Scaf_MPER-GT10v55_W6-03 (Fab, V domains shown, source: FreeStyle 293F cells, transfected, purified) VH: DVQLQESGPGLVKPSQSLSLTCSVTGYSITSGYYWNWIRQFPGNKLEWMGYISYDGSNNYNPSLKNRISITRDTSQNQFFLKLNSVTTEDTASYYCAREGPYYDFWSGYYAYYMDVWGKGTTVTVSS VL: DIVMSQSPSSLAVSVGEKVTMSCKSSQSLLYSSNQKNYLAWYQQKPGQSPKLLIYWASTRKSGVPDRFTGSGSGTDFTLTISSVKAEDLAVYYCQQYFGYPLTFGAGTKLELK",
    "parameter": "pKd",
    "data-value": 8.05
  },
  {
    "binder": "SA684_Exp1_Scaf_MPER-GT12v56_W6-10 (Fab, V domains shown, also called off-target mouse Fab W6-10; source: FreeStyle 293F cells, transfected, purified) VH: QVTLKESGPGILQPSQTLSLTCSFSGFSLSTFGMGVGWIRQPSGKGLEWLAHIWWDDDKFYNPALKSRLTISKDTSKNQVFLKIANVDTADTATYYCARIGEDYFLDVWGKGTTVTVSS VL: DIQMTQSPASLSASVGETVTITCRASGNIHNYLAWYQQKQGKSPQLLVYNAKTLADGVPSRFSGSGSGTQYSLKINSLQPEDFGSYYCQHFWSAPYTFGGGTNLEIK",
    "parameter": "pKd",
    "data-value": 8.52
  }
]

Attention now shifts to the item below.
Please look up its pKd: NHP-10E8_MPER-GT10v55_W3-05 (Fab, V domains shown, source: FreeStyle 293F cells, transfected, purified) VH: EVQLVESGGGLVQPGGSLRLSCAASGFTFSNYWMSWVRQAPGKGLEWVGFIKNKADGGTAAYAESVKGRFTISRDDSKNTLYLQMNSLKTEDTAVYYCARDLGRYNFWSGFYSQNRFDVWGPGVLVTVSS VL: SYEVTQPPSVSVSPGQMARITCGGDNLGSKYVHWYQQKPAQAPVLVIYDDSERPSGIPERFSGSKSGNTATLTISGVEAGDEADYYCQVWDSSSDHPLFGGGTRLTVL
7.72
